target: human glucagon receptor (human) (UniProt P47871); test: cell-based or functional assay
Sequence (P47871 26-477): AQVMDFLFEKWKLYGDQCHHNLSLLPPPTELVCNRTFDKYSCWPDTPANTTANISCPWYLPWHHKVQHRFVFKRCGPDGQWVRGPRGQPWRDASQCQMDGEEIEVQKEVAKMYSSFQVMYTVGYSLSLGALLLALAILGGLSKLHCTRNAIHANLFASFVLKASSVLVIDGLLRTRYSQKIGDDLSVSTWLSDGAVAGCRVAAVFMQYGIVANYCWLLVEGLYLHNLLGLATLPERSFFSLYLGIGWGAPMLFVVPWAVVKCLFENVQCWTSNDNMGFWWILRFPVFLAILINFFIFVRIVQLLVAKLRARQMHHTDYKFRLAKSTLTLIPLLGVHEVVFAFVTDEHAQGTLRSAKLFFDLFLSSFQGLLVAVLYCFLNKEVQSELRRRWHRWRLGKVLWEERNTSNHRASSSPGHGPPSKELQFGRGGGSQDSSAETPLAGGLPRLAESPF
Starred links: 1 amine or outer side, 2 acyl side, 3 side chain; linkers in the order of their positions; H or OH if unused. Non-standard residues stand in square brackets, D forms with d. Groups on a side chain read outwards from the residue. No end group written: not given here. *: point of attachment. C20 diacid = O=C(O)CCCCCCCCCCCCCCCCCCC(=O)*; C18 diacid = O=C(O)CCCCCCCCCCCCCCCCC(=O)*; γGlu = O=C(O)[C@H](CCC(=O)[*:2])N[*:1]; αMeL = CC(C)C[C@](C)(N)C(=O)O; Dab = NCC[C@H](N)C(=O)O; AEEA = NCCOCCOCC(=O)O; Aib = CC(C)(N)C(=O)O
measurementKind: Relative cAMP EC50 (nM)

INSERT INTO assay_data (binder, measurementkind, quantityunit, reading) VALUES
  ('YXQGTFTSDXSXXLDKKAQXAFIEYLIEXGESSGAPPPSGE (non-natural residues; Lys acylated C18 diacid; C-terminal amide; synthetic construct; SITE 2: note = 2-Aminoisobutyric Acid; SITE 10: note = 3-(4-Pyridyl)-L-alanine; SITE 12: note = L-ornithine; SITE 13: note = alpha-methyl-leucine; SITE 17: note = Lysine is chemically modified through conjugation of the epsilon-amino group of the Lysine side chain with (2-[2-(2-) [Example 222]', 'Relative cAMP EC50', 'nM', 2.33),
  ('YXQGTFTSDFSXXLDKKAQXAFIEYLLEGGESSGAPPPSGS (synthetic construct; SITE 2: note = 2-Aminoisobutyric Acid; SITE 12: note = L-ornithine; SITE 13: note = alpha-methyl-leucine; SITE 17: note = Lysine is chemically modified through conjugation of the epsilon-amino group of the Lysine side chain with (2-[2-(2-Amino-ethoxy)-ethoxy]-acetyl)-(gamma-Glu)) [Example 145]', 'Relative cAMP EC50', 'nM', 3.14),
  ('YXQGTFTSDXSQXLDXKAQXAFIEXLLEGGPSSGAPPPSGSEE (synthetic construct; SITE 2: note = 2-Aminoisobutyric Acid; SITE 10: note = 3-(4-Pyridyl)-L-alanine; SITE 13: note = alpha-methyl-leucine; SITE 16: note = L-ornithine; SITE 17: note = Lysine is chemically modified through conjugation of the epsilon-amino group of the Lysine side chain with (gamma-Gl)) [Example 946]', 'Relative cAMP EC50', 'nM', 16.5),
  ('YXQGTFTSDYXIXLDKKAQXAFIEYLIEGGPSSGAPPPS (synthetic construct; SITE 2: note = 2-Aminoisobutyric Acid; SITE 11: note = alpha-methyl-L-serine; SITE 13: note = alpha-methyl-leucine; SITE 17: note = Lysine is chemically modified through conjugation of the epsilon-amino group of the Lysine side chain with (2-[2-(2-Amino-ethoxy)-ethoxy]-acetyl)2-) [Example 382]', 'Relative cAMP EC50', 'nM', 3.72),
  ('YXQGTFTSDFSXXLDKKAQXAFIEYLLEAGPSSGHPPPSGX (synthetic construct; SITE 2: note = 2-Aminoisobutyric Acid; SITE 12: note = L-ornithine; SITE 13: note = alpha-methyl-leucine; SITE 17: note = Lysine is chemically modified through conjugation of the epsilon-amino group of the Lysine side chain with (2-[2-(2-Amino-ethoxy)-ethoxy]-acetyl)2-(gamma-Glu)) [Example 256]', 'Relative cAMP EC50', 'nM', 5.71),
  ('Y[Aib]QGTFTSDFS[Dab][αMeL]LDKK([AEEA-γGlu-C18 diacid])AQ[Aib]AFIEYLLE[Aib]GPSSGAPPPSGS-NH2 (ends and bridges not checked) [Example 133]', 'Relative cAMP EC50', 'nM', 1.64),
  ('YXQGTFTSDXSRXLDKKAQXAFIEYLIAGGPSSGAPPPSGSEE (synthetic construct; SITE 2: note = 2-Aminoisobutyric Acid; SITE 10: note = 3-(4-Pyridyl)-L-alanine; SITE 13: note = alpha-methyl-leucine; SITE 17: note = Lysine is chemically modified through conjugation of the epsilon-amino group of the Lysine side chain with (gamma-Glu)2-CO-(CH2)16-CO2H; SITE 20:) [Example 962]', 'Relative cAMP EC50', 'nM', 3.13),
  ('Y[Aib]QGTFTSDYSI[αMeL]LDKQAAK([AEEA-AEEA-γGlu-C20 diacid])AFVEWLLA[Aib]GPSSGEPPPSEG-NH2 [Example 317]', 'Relative cAMP EC50', 'nM', 2.42),
  ('YXQGTFTSDFSXXLDKKAQXAFIEYLLEXGPSSGAPPPSGE (synthetic construct; SITE 2: note = 2-Aminoisobutyric Acid; SITE 12: note = L-ornithine; SITE 13: note = alpha-methyl-leucine; SITE 17: note = Lysine is chemically modified through conjugation of the epsilon-amino group of the Lysine side chain with (2-[2-(2-Amino-ethoxy)-ethoxy]-acetyl)2-(gamma-Glu)) [Example 111]', 'Relative cAMP EC50', 'nM', 4.25),
  ('YXQGTFTSDXSQXLDXKAQXQFIEYLIAGGPSSGAPPPSGSEE (not fully specified; synthetic construct; SITE 2: note = 2-Aminoisobutyric Acid; SITE 10: note = 3-(4-Pyridyl)-L-alanine; SITE 13: note = alpha-methyl-leucine; SITE 16: note = L-ornithine; SITE 17: note = Lysine is chemically modified through conjugation of the epsilon-amino group of the Lysine side chain with (gamma-Gl)) [Example 1005]', 'Relative cAMP EC50', 'nM', 9.46),
  ('YXQGTXTSDXXIXLDXKAQXEFIEXLIEGGPSSGAPPPGGE (non-natural residues; K acylated AEEA-γGlu-C18 diacid; C-amide; synthetic construct; SITE 2: note = 2-Aminoisobutyric Acid; SITE 6: note = alpha-methyl-2-fluoro-L-phenylalanine; SITE 10: note = 3-(4-Pyridyl)-L-alanine; SITE 11: note = alpha-methyl-L-serine; SITE 13: note = alpha-methyl-leucine; SITE 16: note = L-ornithine; SITE 17: note = Lysine is chemically mo) [Example 1144]', 'Relative cAMP EC50', 'nM', 1.32),
  ('YXQGTFTSDFSXXLDKKAQXAFIEYLLEGGPSSGAPPPSGE (synthetic construct; SITE 2: note = 2-Aminoisobutyric Acid; SITE 12: note = L-ornithine; SITE 13: note = alpha-methyl-leucine; SITE 17: note = Lysine is chemically modified through conjugation of the epsilon-amino group of the Lysine side chain with (2-[2-(2-Amino-ethoxy)-ethoxy]-acetyl)2-(gamma-Glu)) [Example 107]', 'Relative cAMP EC50', 'nM', 10.8),
  ('YXQGTXTSDXSIXLDKKAQXAFIEYLSEGGPSSGAPPPS (synthetic construct; SITE 2: note = 2-Aminoisobutyric Acid; SITE 6: note = alpha-methyl-2-fluoro-L-phenylalanine; SITE 10: note = 3-(4-Pyridyl)-L-alanine; SITE 13: note = alpha-methyl-leucine; SITE 17: note = Lysine is chemically modified through conjugation of the epsilon-amino group of the Lysine) [Example 446]', 'Relative cAMP EC50', 'nM', 8.34),
  ('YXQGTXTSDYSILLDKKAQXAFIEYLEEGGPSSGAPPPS (synthetic construct; SITE 2: note = 2-Aminoisobutyric Acid; SITE 6: note = alpha-methyl-L-phenylalanine; SITE 17: note = Lysine is chemically modified through conjugation of the epsilon-amino group of the Lysine side chain with (2-[2-(2-Amino-ethoxy)-ethoxy]-acetyl)-(gamma-Glu)-CO-(CH2) 16-CO2H; SIT) [Example 392]', 'Relative cAMP EC50', 'nM', 3.02),
  ('YXQGTFTSDXSRXLDKKAQXAFIEYLIEXSPSSGAPPPSGS (synthetic construct; SITE 2: note = 2-Aminoisobutyric Acid; SITE 10: note = 3-(4-Pyridyl)-L-alanine; SITE 13: note = alpha-methyl-leucine; SITE 17: note = Lysine is chemically modified through conjugation of the epsilon-amino group of the Lysine side chain with (2-[2-(2-Amino-ethoxy)-ethoxy]-acetyl)) [Example 807]', 'Relative cAMP EC50', 'nM', 12.4),
  ('YXQGTXTSDXXIXLDXXAQXEFIEXLIEGGPSSGAPPPSGS (synthetic construct; SITE 2: note = 2-Aminoisobutyric Acid; SITE 6: note = alpha-methyl-2-fluoro-L-phenylalanine; SITE 10: note = 3-(4-Pyridyl)-L-alanine; SITE 11: note = alpha-methyl-L-serine; SITE 13: note = alpha-methyl-leucine; SITE 16: note = L-ornithine; SITE 17: note = Ornithine is chemically) [Example 1211]', 'Relative cAMP EC50', 'nM', 1.45),
  ('YXQGTFTSDYSXXLDKKAQXAFIEYLLEGGESSGAPPPSGS (synthetic construct; SITE 2: note = 2-Aminoisobutyric Acid; SITE 12: note = L-ornithine; SITE 13: note = alpha-methyl-leucine; SITE 17: note = Lysine is chemically modified through conjugation of the epsilon-amino group of the Lysine side chain with (2-[2-(2-Amino-ethoxy)-ethoxy]-acetyl)-(gamma-Glu)) [Example 359]', 'Relative cAMP EC50', 'nM', 2.1),
  ('YXQGTXTSDXSILLDKKAQXAFIEXLEEGGPSSGAPPPSGSGE (synthetic construct; SITE 2: note = 2-Aminoisobutyric Acid; SITE 6: note = alpha-methyl-2-fluoro-L-phenylalanine; SITE 10: note = 3-(4-Pyridyl)-L-alanine; SITE 17: note = Lysine is chemically modified through conjugation of the epsilon-amino group of the Lysine side chain with (gamma-Glu)2-CO-(CH2)1) [Example 666 (SEQ ID NO: 672)]', 'Relative cAMP EC50', 'nM', 2),
  ('YXQGTXTSDXSIXLDXKAQXEFIEXLIEGGPSSGAPPPSGE (non-natural residues, acylated Lys, C-terminal amide; synthetic construct; SITE 2: note = 2-Aminoisobutyric Acid; SITE 6: note = alpha-methyl-2-fluoro-L-phenylalanine; SITE 10: note = 3-(4-Pyridyl)-L-alanine; SITE 13: note = alpha-methyl-leucine; SITE 16: note = L-ornithine; SITE 17: note = Lysine is chemically modified through conjugation of the epsil) [Example 614]', 'Relative cAMP EC50', 'nM', 6.36),
  ('YXQGTFTSDFSRXLDKKAQXAFIEYLIEGGESSGAPPPSGS (non-natural residues; lysine acylated with AEEA linker C18 diacid; C-amide; synthetic construct; SITE 2: note = 2-Aminoisobutyric Acid; SITE 13: note = alpha-methyl-leucine; SITE 17: note = Lysine is chemically modified through conjugation of the epsilon-amino group of the Lysine side chain with (2-[2-(2-Amino-ethoxy)-ethoxy]-acetyl)-(gamma-Glu)-CO-(CH2) 16-CO2H; SITE 20: n) [Example 220]', 'Relative cAMP EC50', 'nM', 11.2),
  ('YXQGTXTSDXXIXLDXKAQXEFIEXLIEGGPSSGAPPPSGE (non-natural residues; acylated Lys C18 diacid; C-term amide; synthetic construct; SITE 2: note = 2-Aminoisobutyric Acid; SITE 6: note = alpha-methyl-L-phenylalanine; SITE 10: note = 3-(4-Pyridyl)-L-alanine; SITE 11: note = alpha-methyl-L-serine; SITE 13: note = alpha-methyl-leucine; SITE 16: note = L-ornithine; SITE 17: note = Lysine is chemically modified th) [Example 1164]', 'Relative cAMP EC50', 'nM', 2.83),
  ('YXQGTFTSDFSRXLDKKAQXAFIEYLIEXGESSGAPPPSGS (non-natural residues, AEEA-γGlu-C18 diacid acyl on K, C-terminal amide; synthetic construct; SITE 2: note = 2-Aminoisobutyric Acid; SITE 13: note = alpha-methyl-leucine; SITE 17: note = Lysine is chemically modified through conjugation of the epsilon-amino group of the Lysine side chain with (2-[2-(2-Amino-ethoxy)-ethoxy]-acetyl)-(gamma-Glu)-CO-(CH2) 16-CO2H; SITE 20: n) [Example 230]', 'Relative cAMP EC50', 'nM', 1.61),
  ('YXQGTFTSDFSKXLDKKAQXAFIEYLLAGGPSSGEPPPSEE (Aib, alpha-methyl-Leu, acylated Lys, C-terminal amide; synthetic construct; SITE 2: note = 2-Aminoisobutyric Acid; SITE 13: note = alpha-methyl-leucine; SITE 17: note = Lysine is chemically modified through conjugation of the epsilon-amino group of the Lysine side chain with (2-[2-(2-Amino-ethoxy)-ethoxy]-acetyl)-(gamma-Glu)-CO-(CH2) 18-CO2H; SITE 20: n) [Example 4]', 'Relative cAMP EC50', 'nM', 3.2);
